- subject-of-test: Serine/threonine-protein kinase tousled-like 1 (Homo sapiens)
- test-description: Competitive binding affinity to TLK1 (unknown origin) at 10 uM in presence of ATP relative to control
measured-parameter: inhibition

Consider the worked cases shown below.
[ask] Consider the compound O[C@H]1CC[C@H](Nc2nccc(-c3n[nH]c4ccccc34)n2)CC1 . State its measured inhibition.
[reply] 90%

[ask] Look up and report measured inhibition for this entry: O[C@H]1CC[C@H](Nc2nccc(-n3nnc4ccccc43)n2)CC1
[reply] < 50%

[ask] Check the records and state inhibition for O[C@H]1CC[C@H](Nc2nccc(-n3ccc4ccccc43)n2)CC1
[reply] < 50%

The record that follows has no inhibition shown yet.
[ask] Provide one value: measured inhibition of O[C@H]1CC[C@H](Nc2nccc(-n3ncc4ccccc43)n2)CC1
[reply] < 50%

====

- subject-of-test: Cyclin-dependent kinase 4/cyclin D1 (Homo sapiens)
- Sequence (P11802 whole entry): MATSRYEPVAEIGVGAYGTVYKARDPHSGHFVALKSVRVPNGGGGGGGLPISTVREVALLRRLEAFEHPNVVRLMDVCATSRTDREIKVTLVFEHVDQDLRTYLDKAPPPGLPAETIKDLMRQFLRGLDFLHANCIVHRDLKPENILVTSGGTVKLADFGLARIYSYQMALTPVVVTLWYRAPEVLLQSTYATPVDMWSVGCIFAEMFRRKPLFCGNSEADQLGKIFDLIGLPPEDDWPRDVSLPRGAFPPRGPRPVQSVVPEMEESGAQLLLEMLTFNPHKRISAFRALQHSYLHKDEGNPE
- Sequence (P24385 whole entry, further chain): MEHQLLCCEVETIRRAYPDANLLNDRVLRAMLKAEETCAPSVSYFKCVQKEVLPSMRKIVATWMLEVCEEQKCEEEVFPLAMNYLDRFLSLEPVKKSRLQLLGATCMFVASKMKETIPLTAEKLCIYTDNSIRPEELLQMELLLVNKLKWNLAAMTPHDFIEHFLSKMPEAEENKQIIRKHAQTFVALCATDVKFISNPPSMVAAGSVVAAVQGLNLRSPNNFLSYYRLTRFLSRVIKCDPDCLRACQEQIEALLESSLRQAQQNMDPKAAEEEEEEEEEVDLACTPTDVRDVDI
- test-description: Inhibition of human recombinant human GST-tagged CDK4/cyclin D1 expressed in baculovirus infected insect cells assessed as inhibition of 6XHis-tagged retinoblastoma protein (386 to 928) phosphorylation after 30 mins by scintillation counting analysis in presence of [gamma-33P]-ATP
measured-parameter: pIC50
A value of pIC50 is the negative decimal logarithm of a concentration given in moles per litre.

[ask] Write down pIC50 measured for item CS(=O)(=O)N[C@H]1CC[C@H](Nc2nccc(-n3nnc4ccccc43)n2)CC1
[reply] 6.04

====

In what follows, each item is paired with its pIC50 for Mitogen-activated protein kinase 9 (Homo sapiens, UniProt P45984).
pIC50: −log10 of the molar value.
measured-parameter: pIC50

[ask] Annotate the molecule CC(=O)N[C@H]1CC[C@H](Nc2nccc(-n3nnc4ccccc43)n2)CC1 with its measured pIC50.
[reply] 6.64

I: CS(=O)(=O)NCCCOc1cccc2c1cnn2-c1ccnc(N[C@H]2CC[C@H](O)CC2)n1
II: COC1CCN(C(=O)[C@H]2CC[C@H](Nc3nccc(-n4ccc5c(OCCCS(C)(=O)=O)cccc54)n3)CC2)CC1
[ask] Which shows the larger pIC50 value: I or II ? Respond using the label that marks the chosen record.
[reply] II
(II: 7.55, I: 6.61)

====

- subject-of-test: Receptor tyrosine-protein kinase erbB-4 (Homo sapiens) (UniProt Q15303)
- Sequence (Q15303 whole entry): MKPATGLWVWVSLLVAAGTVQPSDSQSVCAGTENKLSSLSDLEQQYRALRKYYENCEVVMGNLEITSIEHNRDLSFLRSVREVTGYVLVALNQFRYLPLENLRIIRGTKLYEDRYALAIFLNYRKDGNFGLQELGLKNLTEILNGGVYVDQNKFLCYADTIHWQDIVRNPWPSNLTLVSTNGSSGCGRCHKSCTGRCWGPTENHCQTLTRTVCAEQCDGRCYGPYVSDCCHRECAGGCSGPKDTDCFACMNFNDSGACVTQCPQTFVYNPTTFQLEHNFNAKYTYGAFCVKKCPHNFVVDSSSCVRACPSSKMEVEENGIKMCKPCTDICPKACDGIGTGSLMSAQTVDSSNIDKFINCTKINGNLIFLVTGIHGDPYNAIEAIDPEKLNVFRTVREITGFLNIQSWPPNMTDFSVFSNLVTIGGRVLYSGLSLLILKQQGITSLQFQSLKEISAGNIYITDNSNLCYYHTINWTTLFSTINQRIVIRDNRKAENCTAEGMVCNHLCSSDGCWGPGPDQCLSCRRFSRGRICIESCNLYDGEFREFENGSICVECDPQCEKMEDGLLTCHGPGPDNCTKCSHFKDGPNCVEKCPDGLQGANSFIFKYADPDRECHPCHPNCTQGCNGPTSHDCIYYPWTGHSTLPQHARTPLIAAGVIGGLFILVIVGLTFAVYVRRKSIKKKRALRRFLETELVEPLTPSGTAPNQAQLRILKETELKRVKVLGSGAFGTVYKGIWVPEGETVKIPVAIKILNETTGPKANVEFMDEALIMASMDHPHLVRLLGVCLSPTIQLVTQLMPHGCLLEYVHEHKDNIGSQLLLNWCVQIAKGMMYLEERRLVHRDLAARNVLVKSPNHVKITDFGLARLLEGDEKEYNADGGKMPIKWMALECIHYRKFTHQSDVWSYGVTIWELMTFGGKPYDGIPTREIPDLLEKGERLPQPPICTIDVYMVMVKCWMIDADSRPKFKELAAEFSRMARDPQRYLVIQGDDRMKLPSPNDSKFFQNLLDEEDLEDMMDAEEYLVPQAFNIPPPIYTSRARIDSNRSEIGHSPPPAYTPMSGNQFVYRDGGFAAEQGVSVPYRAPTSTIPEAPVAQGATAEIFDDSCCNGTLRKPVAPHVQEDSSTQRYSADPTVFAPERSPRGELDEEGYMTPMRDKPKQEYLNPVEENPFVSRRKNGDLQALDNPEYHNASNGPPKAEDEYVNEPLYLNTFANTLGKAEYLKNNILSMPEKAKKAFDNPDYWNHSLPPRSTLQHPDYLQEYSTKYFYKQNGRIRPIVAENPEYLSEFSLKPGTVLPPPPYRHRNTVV
- test-description: Competitive binding affinity to ERBB4 (unknown origin) at 10 uM in presence of ATP relative to control
The following compounds are shown together with reported inhibition values.

[ask] Please indicate inhibition recorded for O[C@H]1CC[C@H](Nc2nccc(-n3ncc4ccccc43)n2)CC1
[reply] < 50%

[ask] Quickly give me recorded inhibition for O[C@H]1CC[C@H](Nc2nccc(-n3nnc4ccccc43)n2)CC1
[reply] < 50%

[ask] // fetch inhibition given entry O[C@H]1CC[C@H](Nc2nccc(-c3n[nH]c4ccccc34)n2)CC1
[reply] < 50%

[ask] Recall and state the measured inhibition for N[C@H]1CC[C@H](Nc2nccc(-n3nnc4ccccc43)n2)CC1 .
[reply] < 50%

[ask] Identify measured inhibition associated with O[C@H]1CC[C@H](Nc2nccc(-n3ccc4ccccc43)n2)CC1
[reply] < 50%

---
[ask] Return inhibition for the following compound: O=C([C@H]1CC[C@H](Nc2nccc(-n3nnc4ccccc43)n2)CC1)N1CCOCC1
[reply] < 50%

====

- subject-of-test: ALK tyrosine kinase receptor (Homo sapiens)
- test-description: Competitive binding affinity to ALK (unknown origin) at 10 uM in presence of ATP relative to control
measured-parameter: inhibition (%)

[ask] Note inhibition for the compound shown: O[C@H]1CC[C@H](Nc2nccc(-n3ncc4ccccc43)n2)CC1
[reply] 78

A: O[C@H]1CC[C@H](Nc2nccc(-c3n[nH]c4ccccc34)n2)CC1
B: O[C@H]1CC[C@H](Nc2nccc(-n3nnc4ccccc43)n2)CC1
[ask] Of A and B , whose reported inhibition is numerically smaller? Please respond with the label that marks your chosen entry.
[reply] B

====

- System: Rattus norvegicus
- test-description: Cmax in Hanover-Wistar rat at 20 mg/kg, po
- Format: ADME, organism-based
- Design: dose 20 mg/kg, route oral
- recorded-conditions: in vivo
measured-parameter: Cmax (ng/mL)
Record the value in ng/mL, omitting the unit from your answer.

[ask] Give the measured Cmax for CS(=O)(=O)CCCOc1cccc2c1ccn2-c1ccnc(N[C@H]2CC[C@H](C(=O)N3CCC(O)CC3)CC2)n1
[reply] 3680

====

- subject-of-test: Calcium/calmodulin-dependent protein kinase kinase 1 (Homo sapiens) (UniProt Q8N5S9)
- Sequence (Q8N5S9 whole entry, looked up): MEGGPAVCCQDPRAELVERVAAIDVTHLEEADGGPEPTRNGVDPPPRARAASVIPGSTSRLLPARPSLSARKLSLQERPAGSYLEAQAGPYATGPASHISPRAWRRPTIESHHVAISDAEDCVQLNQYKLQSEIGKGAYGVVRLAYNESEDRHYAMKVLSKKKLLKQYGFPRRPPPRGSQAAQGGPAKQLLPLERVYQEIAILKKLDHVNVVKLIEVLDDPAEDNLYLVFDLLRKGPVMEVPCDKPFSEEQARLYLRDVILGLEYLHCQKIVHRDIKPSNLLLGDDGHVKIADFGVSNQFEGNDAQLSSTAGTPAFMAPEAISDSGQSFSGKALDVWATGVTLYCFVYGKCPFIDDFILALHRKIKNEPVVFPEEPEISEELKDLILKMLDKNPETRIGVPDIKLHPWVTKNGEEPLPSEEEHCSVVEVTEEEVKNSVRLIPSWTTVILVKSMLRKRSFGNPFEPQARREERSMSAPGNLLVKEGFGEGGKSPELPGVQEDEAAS
- test-description: Competitive binding affinity to CAMKK1 (unknown origin) at 10 uM in presence of ATP relative to control
The entries below are paired with their reported inhibition.

Reference set, count: 2
[ask] For the molecule O[C@H]1CC[C@H](Nc2nccc(-n3ccc4ccccc43)n2)CC1 , give its measured inhibition value.
[reply] < 50%

[ask] Fill in inhibition for record N[C@H]1CC[C@H](Nc2nccc(-n3nnc4ccccc43)n2)CC1
[reply] < 50%

---
[ask] Give the reported value of inhibition for this record: O[C@H]1CC[C@H](Nc2nccc(-n3ncc4ccccc43)n2)CC1
[reply] < 50%

[ask] Quickly give me recorded inhibition for O=C([C@H]1CC[C@H](Nc2nccc(-n3nnc4ccccc43)n2)CC1)N1CCOCC1
[reply] < 50%

[ask] Return the recorded inhibition value; entry: O[C@H]1CC[C@H](Nc2nccc(-n3nnc4ccccc43)n2)CC1
[reply] < 50%

[ask] Entry O[C@H]1CC[C@H](Nc2nccc(-c3n[nH]c4ccccc34)n2)CC1 needs its inhibition filled in; supply it.
[reply] 85%

====

- subject-of-test: Cyclin-dependent kinase 2 (Homo sapiens)
- test-description: Competitive binding affinity to CDK2 (unknown origin) at 10 uM in presence of ATP relative to control
measured-parameter: inhibition (%)

[ask] # return recorded inhibition for input O[C@H]1CC[C@H](Nc2nccc(-c3n[nH]c4ccccc34)n2)CC1
[reply] 100

[ask] Please report inhibition for the following molecule: O[C@H]1CC[C@H](Nc2nccc(-n3ncc4ccccc43)n2)CC1
[reply] 94

[ask] Return value of inhibition for input O[C@H]1CC[C@H](Nc2nccc(-n3nnc4ccccc43)n2)CC1 , no commentary.
[reply] 94

[ask] Give inhibition for the following molecule: O[C@H]1CC[C@H](Nc2nccc(-n3ccc4ccccc43)n2)CC1
[reply] 90

====

inhibition: recorded values
- subject-of-test: Phosphorylase b kinase gamma catalytic chain, skeletal muscle/heart isoform (Homo sapiens) (UniProt Q16816)
- Sequence (Q16816 whole entry, looked up, canonical isoform): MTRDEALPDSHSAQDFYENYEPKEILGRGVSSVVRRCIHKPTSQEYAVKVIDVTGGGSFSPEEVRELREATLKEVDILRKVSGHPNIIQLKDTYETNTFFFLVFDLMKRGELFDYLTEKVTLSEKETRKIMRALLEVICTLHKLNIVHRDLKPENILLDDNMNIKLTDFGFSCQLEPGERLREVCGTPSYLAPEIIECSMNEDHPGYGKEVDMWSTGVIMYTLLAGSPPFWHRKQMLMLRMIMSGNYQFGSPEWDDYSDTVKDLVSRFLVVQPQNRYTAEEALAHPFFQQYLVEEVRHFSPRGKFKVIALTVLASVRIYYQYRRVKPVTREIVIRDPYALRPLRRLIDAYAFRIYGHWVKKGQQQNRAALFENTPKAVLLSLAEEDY
- test-description: Competitive binding affinity to PHKG1 (unknown origin) at 10 uM in presence of ATP relative to control

Known inhibition results, listed for orientation:
[ask] Answer with the recorded inhibition of O[C@H]1CC[C@H](Nc2nccc(-n3ccc4ccccc43)n2)CC1 only.
[reply] < 50%

[ask] Tell me its inhibition given N[C@H]1CC[C@H](Nc2nccc(-n3nnc4ccccc43)n2)CC1 as the entry.
[reply] 93%

[ask] Specify inhibition for O=C([C@H]1CC[C@H](Nc2nccc(-n3nnc4ccccc43)n2)CC1)N1CCOCC1 and stop.
[reply] < 50%

[ask] Please give measured inhibition of the following entry: O[C@H]1CC[C@H](Nc2nccc(-n3nnc4ccccc43)n2)CC1
[reply] < 50%

[ask] Identify measured inhibition corresponding to O[C@H]1CC[C@H](Nc2nccc(-n3ncc4ccccc43)n2)CC1
[reply] < 50%

Shifting focus to the molecule that follows.
[ask] Provide only the value of recorded inhibition for O[C@H]1CC[C@H](Nc2nccc(-c3n[nH]c4ccccc34)n2)CC1
[reply] 77%

====

- subject-of-test: Mitogen-activated protein kinase 15 (Homo sapiens) (UniProt Q8TD08)
- Sequence (Q8TD08 whole entry): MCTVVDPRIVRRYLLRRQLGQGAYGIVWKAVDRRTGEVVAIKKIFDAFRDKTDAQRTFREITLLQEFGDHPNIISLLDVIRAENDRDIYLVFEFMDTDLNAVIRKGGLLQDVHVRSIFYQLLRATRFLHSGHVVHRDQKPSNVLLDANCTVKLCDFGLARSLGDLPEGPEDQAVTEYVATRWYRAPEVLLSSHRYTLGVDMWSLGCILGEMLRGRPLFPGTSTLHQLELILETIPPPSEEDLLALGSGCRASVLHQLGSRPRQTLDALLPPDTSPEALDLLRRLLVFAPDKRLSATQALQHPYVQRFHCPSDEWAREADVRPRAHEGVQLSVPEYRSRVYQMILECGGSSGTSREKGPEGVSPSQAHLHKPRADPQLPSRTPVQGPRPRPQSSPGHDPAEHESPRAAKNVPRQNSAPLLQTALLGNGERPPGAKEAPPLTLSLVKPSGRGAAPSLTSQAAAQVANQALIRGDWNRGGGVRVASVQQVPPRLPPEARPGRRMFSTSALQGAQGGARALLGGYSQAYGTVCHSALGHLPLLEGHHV
- test-description: Competitive binding affinity to ERK8 (unknown origin) at 10 uM in presence of ATP relative to control
measured-parameter: inhibition (%)
Express it in %; write the number only.

Example cases with answers are listed next.
[ask] Please list inhibition recorded for the compound O[C@H]1CC[C@H](Nc2nccc(-n3ccc4ccccc43)n2)CC1
[reply] 91

[ask] Item O[C@H]1CC[C@H](Nc2nccc(-n3nnc4ccccc43)n2)CC1 : provide inhibition
[reply] 99

Note: attention shifts to another entry.
[ask] Please indicate inhibition recorded for O[C@H]1CC[C@H](Nc2nccc(-n3ncc4ccccc43)n2)CC1
[reply] 97

====

- subject-of-test: Serine/threonine-protein kinase PAK 1 (Homo sapiens) (UniProt Q13153)
- Sequence (Q13153 whole entry): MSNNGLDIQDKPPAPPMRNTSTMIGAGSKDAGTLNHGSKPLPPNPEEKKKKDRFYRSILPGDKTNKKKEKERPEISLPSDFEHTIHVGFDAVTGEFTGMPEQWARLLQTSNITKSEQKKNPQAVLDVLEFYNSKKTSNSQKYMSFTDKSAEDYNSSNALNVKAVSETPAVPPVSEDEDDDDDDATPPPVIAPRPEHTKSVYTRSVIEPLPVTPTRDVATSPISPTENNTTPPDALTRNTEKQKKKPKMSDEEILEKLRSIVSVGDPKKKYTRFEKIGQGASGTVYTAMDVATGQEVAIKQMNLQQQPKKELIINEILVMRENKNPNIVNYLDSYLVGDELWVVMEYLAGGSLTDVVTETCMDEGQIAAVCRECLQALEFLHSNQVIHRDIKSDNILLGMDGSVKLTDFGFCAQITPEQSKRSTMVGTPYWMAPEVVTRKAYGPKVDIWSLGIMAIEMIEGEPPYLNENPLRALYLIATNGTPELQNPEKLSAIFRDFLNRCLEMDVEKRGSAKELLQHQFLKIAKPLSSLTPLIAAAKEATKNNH
- test-description: Competitive binding affinity to PAK1 (unknown origin) at 10 uM in presence of ATP relative to control
measured-parameter: inhibition

[ask] Give inhibition for the following molecule: N[C@H]1CC[C@H](Nc2nccc(-n3nnc4ccccc43)n2)CC1
[reply] < 50%

[ask] Name the recorded inhibition of the molecule listed here: O=C([C@H]1CC[C@H](Nc2nccc(-n3nnc4ccccc43)n2)CC1)N1CCOCC1
[reply] < 50%

[ask] Answer with the recorded inhibition for the molecule listed here: O[C@H]1CC[C@H](Nc2nccc(-n3ccc4ccccc43)n2)CC1
[reply] < 50%

[ask] Hello, please tell me recorded inhibition for this one: O[C@H]1CC[C@H](Nc2nccc(-n3ncc4ccccc43)n2)CC1
[reply] < 50%

Others:
[ask] Give the reported value of inhibition for this record: O[C@H]1CC[C@H](Nc2nccc(-n3nnc4ccccc43)n2)CC1
[reply] < 50%

[ask] For the molecule O[C@H]1CC[C@H](Nc2nccc(-c3n[nH]c4ccccc34)n2)CC1 , give its measured inhibition value.
[reply] 68%
